# maps each entry to its pIC50
test system: MCF7; experiment: cells; format: functional, cell-based; conditions: Homo sapiens, MCF7, 48 h
Description: Cytotoxicity against human MCF7 cells assessed as inhibition of cell growth incubated for 48 hrs by MTT assay
Note on units: pIC50 is unitless, being -log10 of a concentration expressed in mol/L.

1) COc1cccc(-c2nnc(-c3ccnc(-c4ccccc4)c3)o2)c1 ... 6.12
2) COc1cccc(-c2nnc(-c3ccnc(-c4ccc(C(F)(F)F)cc4)c3)o2)c1 ... 4.91

Enquiry: Would you kindly share the measured pIC50 for COc1ccc(-c2nnc(-c3ccnc(-c4ccccc4)c3)o2)cc1 ?
Return: 5.01

Enquiry: Would you kindly share the measured pIC50 for c1ccc(-c2cc(-c3nnc(-c4ccccc4)o3)ccn2)cc1 ?
Return: 5.08

Enquiry: Would you kindly share the measured pIC50 for COc1ccc(-c2nnc(-c3ccnc(-c4ccc(C(F)(F)F)cc4)c3)o2)cc1 ?
Return: 4.59

Enquiry: Would you kindly share the measured pIC50 for FC(F)(F)c1ccc(-c2cc(-c3nnc(-c4cccc(Cl)c4)o3)ccn2)cc1 ?
Return: 5.00

---

test: in vitro; details: human, RWPE2 cells
Description: Cytotoxicity against human RWPE2 cells assessed as inhibition of cell growth incubated for 48 hrs by MTT assay
# maps each entry to its IC50 at 48 h
Enter your answer as a number in µM; do not include the unit.

Examples with their reported IC50 at 48 h follow.
1. Fc1ccc(-c2nnc(-c3ccnc(-c4ccc(C(F)(F)F)cc4)c3)o2)cc1 ... 45.7
2. Fc1cccc(-c2nnc(-c3ccnc(-c4ccc(C(F)(F)F)cc4)c3)o2)c1 ... 31.9
3. c1ccc(-c2cc(-c3nnc(-c4ccccc4)o3)ccn2)cc1 ... 42.6

Read the next record carefully.
Enquiry: Would you kindly share the measured IC50 at 48 h for Clc1cccc(-c2nnc(-c3ccnc(-c4ccccc4)c3)o2)c1 ?
Return: 35.4

---

assay: Toxicity in mouse xenografted with human PC-3 cells assessed as lethal dose at ip administration; format: organism-based; conditions: in vivo
observation.type: LD50
Returns: string containing the numeric result and its unit.

Enquiry: Would you kindly share the measured LD50 for Clc1cccc(-c2nnc(-c3ccnc(-c4ccccc4)c3)o2)c1 ?
Return: 4.2 mg/kg

---

tested on: MCF7; assay: cells; type: functional, cell-based; conditions: Homo sapiens, MCF7, 48 h
observation.type: log10(IC50) (log10 of the value in µM)
Lab note - IC50 converted to log10 from values in µM.

Examples with their reported log10(IC50) follow.
1. FC(F)(F)c1ccc(-c2cc(-c3nnc(-c4ccccc4)o3)ccn2)cc1 ... 0.98
2. Fc1ccc(-c2nnc(-c3ccnc(-c4ccccc4)c3)o2)cc1 ... 1.28
3. Fc1cccc(-c2nnc(-c3ccnc(-c4ccccc4)c3)o2)c1 ... 0.58

Enquiry: Would you kindly share the measured log10(IC50) for Fc1cccc(-c2nnc(-c3ccnc(-c4ccc(C(F)(F)F)cc4)c3)o2)c1 ?
Return: 1.85

Enquiry: Would you kindly share the measured log10(IC50) for Clc1cccc(-c2nnc(-c3ccnc(-c4ccccc4)c3)o2)c1 ?
Return: 0.73

Enquiry: Would you kindly share the measured log10(IC50) for COc1ccc(-c2nnc(-c3ccnc(-c4ccccc4)c3)o2)c(F)c1 ?
Return: 1.31

Enquiry: Would you kindly share the measured log10(IC50) for Fc1ccc(-c2nnc(-c3ccnc(-c4ccc(C(F)(F)F)cc4)c3)o2)cc1 ?
Return: 1.14

Source listed as ChEMBL document CHEMBL5385896.
